Source listed as PubChem BioAssay (NCI).

Provide the recorded growth for the entries that follow.
# Test system: LOX IMVI melanoma
# ASSAY METHOD TEXT: NCI-60 one-dose screen, 48 h (100 = growth as untreated, 0 = no growth, -100 = all killed)
# CONDITION PARAMETERS: 10 µM
Compounds without any hit were thinned out: in the full panel of roughly 83,000, 20% have a hit. *1 amine or outer side, *2 acyl side, *3 side chain or, on linkers, in order; H or OH if unused. Where a SMILES comes first, the peptide text is derived from it. Bridges are numbered along the chain shown (N, C = ends). Roman numbers before positions name the chains, in order. [ ]: non-standard residue; d: D form. Actinocin(1to9) = Cc1c2oc3c(C)ccc(C(=O)[*:2])c3nc-2c(C(=O)[*:1])c(N)c1=O; NMeV = CN[CH](C(=O)O)C(C)C; Sar = CNCC(=O)O
Answers are plain numbers, in %.

Report growth for every entry below.
1. CCCCCCCCc1cc(Cl)c(O)c(Cl)c1
2. CCC(C)C1NC(=O)C(NC(=O)c2c3nc4c(C(=O)NC5C(=O)NC(C(C)CC)C(=O)N6CCCC6C(=O)N(C)CC(=O)N(C)C(C(C)C)C(=O)OC5C)ccc(C)c4oc-3c(C)c(=O)c2N)C(C)OC(=O)C(C(C)C)N(C)C(=O)CN(C)C(=O)C2CCCN2C1=O (stereo not given) (I: TIP[Sar][NMeV] / II: TIP[Sar][NMeV]; ester I:1-I:C, II:1-II:C; linker I:N-II:N via Actinocin(1to9); configuration not given here)
3. CC(C)(C)CC(C)(C)c1ccc(OCCOCCSC(=N)N)cc1

[A]
95.6
0.241
-81

====

# Test system: M14 melanoma
# ASSAY METHOD TEXT: NCI-60 one-dose screen, 48 h
# CONDITION PARAMETERS: 10 µM unless noted
The panel holds about 83,000 compounds, 20% with a hit somewhere; the sample as a whole holds those more often. Calls of active or inactive are those of the source. How the source made its calls: active means growth percent below 10; inactive means the rest. *1 amine or outer side, *2 acyl side, *3 side chain or, on linkers, in order; H or OH if unused. Where a SMILES comes first, the peptide text is derived from it. Bridges are numbered along the chain shown (N, C = ends). Roman numbers before positions name the chains, in order. [ ]: non-standard residue; d: D form. Actinocin(1to9) = Cc1c2oc3c(C)ccc(C(=O)[*:2])c3nc-2c(C(=O)[*:1])c(N)c1=O; NMeV = CN[CH](C(=O)O)C(C)C; Sar = CNCC(=O)O
Result category, one only: 1 for active, -1 for inactive

Would you please look over these solved cases?
O=C1CSC(=S)N1Cc1cccnc1
-1
CCCCCCC1N=C(N)N=C(N)N1c1cccc(Cl)c1 (stereo not given)
-1
COc1ccc2nc3cc(Cl)ccc3c(NCCCCCN3CCCCC3)c2c1
1

[Q] // return assay outcome for O=C(c1ccccc1)C(O)C(Br)(CBr)c1ccccc1 (stereo not given)
[A] -1

[Q] Please do the same for CC1(C)OC2C(COC(c3ccccc3)(c3ccccc3)c3ccccc3)OC(c3c[nH]c4c(N)ncnc34)C2O1 (stereo not given) as well.
[A] -1

[Q] Please do the same for CCC(C)C1NC(=O)C(NC(=O)c2c3nc4c(C(=O)NC5C(=O)NC(C(C)CC)C(=O)N6CCCC6C(=O)N(C)CC(=O)N(C)C(C(C)C)C(=O)OC5C)ccc(C)c4oc-3c(C)c(=O)c2N)C(C)OC(=O)C(C(C)C)N(C)C(=O)CN(C)C(=O)C2CCCN2C1=O (stereo not given) (I: TIP[Sar][NMeV] / II: TIP[Sar][NMeV]; ester I:1-I:C, II:1-II:C; linker I:N-II:N via Actinocin(1to9); configuration not given here) as well.
[A] 1

[Q] Please do the same for CC(C)(C)c1ccc(CCO)cc1 as well.
[A] -1

[Q] Please do the same for [Cl-].[Rh+3].c1ccc(-c2ccnc3c2ccc2c(-c4ccccc4)ccnc23)cc1.c1ccc(-c2ccnc3c2ccc2c(-c4ccccc4)ccnc23)cc1.c1ccc(-c2ccnc3c2ccc2c(-c4ccccc4)ccnc23)cc1 as well.
[A] -1

[Q] Please do the same for CN(C)CCSC1=Nc2ccc(Cl)cc2C(c2ccccc2Cl)N(C)C1 (stereo not given) as well.
[A] -1

[Q] Please do the same for CCCCCCCCCCCCNCCCc1ccccc1 as well.
[A] -1

[Q] Please do the same for CCCCCCN(CCCCCC)CCCNc1nccc2ccccc12 as well.
[A] 1

[Q] Please do the same for CC12CCC(O)CC1=CCC1C2CCC2(C)C3=NN=CC3CC12 (stereo not given) as well.
[A] -1

[Q] Please do the same for CC1C(c2ccccc2)OCCN1C(=S)Nc1ccc(S(=O)(=O)N2CCCCC2)cc1 (stereo not given) as well.
[A] -1

[Q] Please do the same for CC(C)=C1C=C2CC[C@@H]3[C@](C)(CCC[C@@]3(C)C(=O)O)[C@H]2CC1 as well.
[A] -1

[Q] Please do the same for O=C(O)c1cc2c(s1)C(=O)c1sccc1C2=O as well.
[A] 1

[Q] Please do the same for O=C1C=CC(=O)c2c(O)c(CO)c(CO)c(O)c21 as well.
[A] -1

[Q] Please do the same for CCC1C[N+]2=C(c3cc(OC)c(OC)cc3CC2)c2c1cc1n2CCc2cc(OC)c(OC)cc2-1 (stereo not given) as well.
[A] -1

[Q] Please do the same for CC(=O)c1ccc2c(c1)CCc1ccccc1-2 as well.
[A] -1

[Q] Please do the same for CCN(CC)CCNc1ccc([N+](=O)[O-])c2sc3ccccc3c(=O)c12 as well.
[A] -1

[Q] Please do the same for COC(=O)c1nc(=S)[nH]c(C(=O)OC)c1C(=O)c1ccc(Cl)c(Cl)c1 as well.
[A] -1

[Q] Please do the same for CC(/C=N/NC(N)=S)Cc1ccc(C(C)C)cc1 (stereo not given) as well.
[A] -1

[Q] Please do the same for C(=N\Nc1ccc2ccccc2n1)/c1ccccn1 as well.
[A] 1

[Q] Please do the same for O=C(CBr)c1ccc(OC(=O)c2ccccc2)cc1 as well.
[A] -1

[Q] Please do the same for Oc1ccc2ccccc2c1N=Nc1ccccn1 as well.
[A] -1

[Q] Please do the same for O=C(/C=C/C(Cl)(Cl)Cl)Nc1ccc(Cl)cc1 as well.
[A] -1

====

# System: BT-549 breast
# ASSAY METHOD TEXT: NCI-60 one-dose screen, 48 h (100 = growth as untreated, 0 = no growth, -100 = all killed)
# CONDITION PARAMETERS: 10 µM unless noted
About 83,000 compounds went through this panel and 20% of them were active in at least one assay; those are over-represented in the sample as a whole. Active and inactive are the calls of the source. The calls were made as follows: active = growth percent below 10; inactive = the rest. *1 amine or outer side, *2 acyl side, *3 side chain or, on linkers, in order; H or OH if unused. Where a SMILES comes first, the peptide text is derived from it. [ ]: non-standard residue; d: D form. The star is where a group is joined. X5 = CCC(=O)CC1CC(C)CC(C(=O)[*:2])N1[*:1]; X4 = CCCCCCCCC(C)C(=O)*; Aib = CC(C)(N)C(=O)O; X6 = CC(CN(C)CCO)N*
Provide the recorded growth for the entries that follow.

Some entries whose results are on file:
CCCCCCC1N=C(N)N=C(N)N1c1cccc(Cl)c1 (stereo not drawn)
25.2% (inactive)
C[C@@]1(CO)[C@H](O)CC[C@@]2(C)[C@H]1CC[C@H]1C[C@@H]3C[C@@]12CC[C@@]3(O)COC(=O)CN
46.3% (inactive)
CN(C)c1ccc(/C=C/c2ccnc3ccccc23)cc1
20.2% (inactive)
CCOC(=O)C1=NN(c2ccccc2)C(=O)/C1=C\N1C(=O)/C(=C/c2cccc(O)c2)SC1=S
97% (inactive)
CCCCCCCCC(C)C(=O)N1CCCC1C(=O)N1C(CC(=O)CC)CC(C)CC1C(=O)NC(C)C(=O)NC(C)(C)C(=O)NC(C)(C)C(=O)NC(C(=O)NC(C)C(=O)NC(C)(C)C(=O)NC(C)(C)C(=O)NC(C)CN(C)CCO)C(C)CC (stereo not drawn) (X4-P[X5]A[Aib][Aib]IA[Aib][Aib]-X6; configuration not given here)
-80.3% (active)

Report growth for every entry below.
1. O=C1C=CC(=O)N1c1ccccc1
2. Cc1ccc(Nc2ccc(O)c3c2C(=O)c2c(O)ccc(Nc4ccc(C)cc4)c2C3=O)cc1
3. Clc1ccccc1C(c1ccccc1)(c1ccccc1)n1ccnc1

[A]
97.1% (inactive)
113% (inactive)
42.5% (inactive)

====

# Test system: ACHN renal
# ASSAY METHOD TEXT: NCI-60 one-dose screen, 48 h (100 = growth as untreated, 0 = no growth, -100 = all killed)
# CONDITION PARAMETERS: 10 µM unless noted
About 83,000 compounds went through this panel and 20% of them were active in at least one assay; those are over-represented in the sample as a whole.
Criterion: growth strictly under 90%. Met: 1. Not met: -1.

Would you please look over these solved cases?
N#CCc1cccc2ccccc12
-1
CCCCCCCCCCCC1=NCCCN1CCCC
-1
O=[N+]([O-])c1ccc(C2N(Cc3ccc(Cl)cc3)CCN2Cc2ccc(Cl)cc2)cc1
1
O=Nc1ccc2ccccc2c1O
1
O=C(c1ccccc1)C(O)C(Br)(CBr)c1ccccc1 (configuration not stated)
-1
CCc1cccc(CC)c1N1C(=O)C=CC1=O
-1
CC(C)=CCCC(C)C1=C(O)C(=O)C(C)=CC1=O (configuration not stated)
1
O=[N+]([O-])c1ccc(C(Br)c2ccc([N+](=O)[O-])cc2)cc1
-1

[Q] Does this compound meet the criterion growth < 90%? COc1ccc2nc3cc(Cl)ccc3c(NCCCCCN3CCCCC3)c2c1
[A] 1

[Q] Please do the same for O=C(NNc1ccccc1)OCc1ccccc1 as well.
[A] 1

[Q] Please do the same for Cn1c(-c2ccccc2)c(/C=C/C2=[N+](C)c3ccccc3C2(C)C)c2ccccc21 as well.
[A] 1
